FYI, the data here is from patent US20120141464A1.

assayTarget: T1, human GM-CSFRα (human, UniProt P15509 23-400)
T1 sequence: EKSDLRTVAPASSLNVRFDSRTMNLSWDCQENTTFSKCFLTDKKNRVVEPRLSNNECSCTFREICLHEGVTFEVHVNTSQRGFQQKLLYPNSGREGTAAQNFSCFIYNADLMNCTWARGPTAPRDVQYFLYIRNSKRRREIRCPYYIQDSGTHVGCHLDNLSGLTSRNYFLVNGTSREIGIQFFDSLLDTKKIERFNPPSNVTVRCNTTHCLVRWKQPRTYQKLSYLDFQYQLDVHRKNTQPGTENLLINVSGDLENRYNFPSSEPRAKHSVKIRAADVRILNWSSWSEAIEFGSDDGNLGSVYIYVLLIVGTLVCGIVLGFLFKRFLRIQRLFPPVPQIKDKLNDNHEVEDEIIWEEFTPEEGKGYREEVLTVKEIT
methodDescription: cell-based or functional assay
measurementLabel: IC50, monocyte TNFα release assay (1 nM human GM-CSF) (nM)
Please reply with the bare figure in nM and do not write the unit itself.

Problem: Which IC50, monocyte TNFα release assay (1 nM human GM-CSF) is reported for this binder? Antibody 6, non-germlined IgG4 (antibody, V domains shown) VH: QVQLVQSGAEVKKPGASVKVSCKISGHSLSELSIHWVRQTPTKGFEWMGGFDPEENEIVYAQRFQGRVTMTEDTSIDTAYLTLSSLRSDDTAVYYCSIVGSFSPLTLGLWGKGTMVTVSS VL: QAVLTQPSSVSGAPGQRVTISCTGSGSNIGAPYDVSWYQQLPGTAPKLLIYHNNKRPSGVPDRFSASKSGTSASLAITGLQADDEADYYCATVEAGLSGSVFGGGTKLTVL
Solution: 0.043
